Data provenance is patent US10526295B2.

System: Z138 cells
test-details: MTT cell proliferation assay (Z138)
Assay type: cell-based
experimental-context: Homo sapiens, Z-138, approximately 64-72 hours incubation, 1 nM to 30 μM
pIC50: −log10 of the molar value.
Measured pIC50, listed per entry.

Please review the entries below; each comes with its answer.
chemical-structure | pIC50
NC(=O)/C(=C/n1cnc(-c2cc(C(F)(F)F)cc(C(F)(F)F)c2)n1)c1cccc(S(=O)(=O)N2CCC(F)(F)C2)c1 | 5.30 to 7.00
NC(=O)/C(=C/n1cnc(-c2cc(C(F)(F)F)cc(C(F)(F)F)c2)n1)c1ccc(S(=O)(=O)N2CCOCC2)cc1 | 5.30 to 7.00

Exercise: Entry NC(=O)/C(=C/n1cnc(-c2cc(C(F)(F)F)cc(C(F)(F)F)c2)n1)c1ccc(S(=O)(=O)N2CCC(F)(F)CC2)cc1 has what pIC50?
Solution: > 7.00

Exercise: Entry NC(=O)/C(=C/n1cnc(-c2cc(C(F)(F)F)cc(C(F)(F)F)c2)n1)c1ccc(S(=O)(=O)N2CCC(F)CC2)cc1 has what pIC50?
Solution: > 7.00

Exercise: Entry NC(=O)/C(=C/n1cnc(-c2cc(C(F)(F)F)cc(C(F)(F)F)c2)n1)c1cccc(S(=O)(=O)N2CC(F)(F)C2)c1 has what pIC50?
Solution: 5.30 to 7.00

Exercise: Entry NC(=O)/C(=C/n1cnc(-c2cc(C(F)(F)F)cc(C(F)(F)F)c2)n1)c1ccc(S(=O)(=O)N2CCC(F)(F)C2)cc1 has what pIC50?
Solution: > 7.00

Exercise: Entry CN1CCN(S(=O)(=O)c2cccc(/C(=C\n3cnc(-c4cc(C(F)(F)F)cc(C(F)(F)F)c4)n3)C(N)=O)c2)CC1 has what pIC50?
Solution: 5.30 to 7.00

Exercise: Entry NC(=O)/C(=C/n1cnc(-c2cc(C(F)(F)F)cc(C(F)(F)F)c2)n1)c1cccc(S(=O)(=O)N2CCC2)c1 has what pIC50?
Solution: 5.30 to 7.00

Exercise: Entry NC(=O)/C(=C/n1cnc(-c2cc(C(F)(F)F)cc(C(F)(F)F)c2)n1)c1cccc(S(=O)(=O)N2CCC(F)(F)CC2)c1 has what pIC50?
Solution: 5.30 to 7.00

Exercise: Entry NC(=O)/C(=C/n1cnc(-c2cc(C(F)(F)F)cc(C(F)(F)F)c2)n1)c1ccc(S(=O)(=O)N2CC[C@@H](F)C2)cc1 has what pIC50?
Solution: > 7.00

Exercise: Entry CN(C)S(=O)(=O)c1ccc(/C(=C\n2cnc(-c3cc(C(F)(F)F)cc(C(F)(F)F)c3)n2)C(N)=O)cc1 has what pIC50?
Solution: 5.30 to 7.00

Exercise: Entry NC(=O)/C(=C/n1cnc(-c2cc(C(F)(F)F)cc(C(F)(F)F)c2)n1)c1cccc(S(=O)(=O)N2CC(F)C2)c1 has what pIC50?
Solution: 5.30 to 7.00

Exercise: Entry NC(=O)/C(=C/n1cnc(-c2cc(C(F)(F)F)cc(C(F)(F)F)c2)n1)c1cccc(S(=O)(=O)N2CCCC2)c1 has what pIC50?
Solution: 5.30 to 7.00

Exercise: Entry NC(=O)/C(=C/n1cnc(-c2cc(C(F)(F)F)cc(C(F)(F)F)c2)n1)c1ccc(S(=O)(=O)N2CCCCC2)cc1 has what pIC50?
Solution: 5.30 to 7.00

Exercise: Entry NC(=O)/C(=C/n1cnc(-c2cc(C(F)(F)F)cc(C(F)(F)F)c2)n1)c1ccc(S(=O)(=O)N2CC(F)C2)cc1 has what pIC50?
Solution: > 7.00

Exercise: Entry NC(=O)/C(=C/n1cnc(-c2cc(C(F)(F)F)cc(C(F)(F)F)c2)n1)c1cccc(S(=O)(=O)N2CCOCC2)c1 has what pIC50?
Solution: 5.30 to 7.00
